Reference source for all entries: patent US20230272056A1

TARGET_SYSTEM: T1, human LAP-TGFB1 Fc fusion (human)
T1 construct: also called human LAP-TGFβ1-Fc; human LAP-TGFβ-Fc isoform 1
T1 sequence (chain, as listed by the source limits assumed): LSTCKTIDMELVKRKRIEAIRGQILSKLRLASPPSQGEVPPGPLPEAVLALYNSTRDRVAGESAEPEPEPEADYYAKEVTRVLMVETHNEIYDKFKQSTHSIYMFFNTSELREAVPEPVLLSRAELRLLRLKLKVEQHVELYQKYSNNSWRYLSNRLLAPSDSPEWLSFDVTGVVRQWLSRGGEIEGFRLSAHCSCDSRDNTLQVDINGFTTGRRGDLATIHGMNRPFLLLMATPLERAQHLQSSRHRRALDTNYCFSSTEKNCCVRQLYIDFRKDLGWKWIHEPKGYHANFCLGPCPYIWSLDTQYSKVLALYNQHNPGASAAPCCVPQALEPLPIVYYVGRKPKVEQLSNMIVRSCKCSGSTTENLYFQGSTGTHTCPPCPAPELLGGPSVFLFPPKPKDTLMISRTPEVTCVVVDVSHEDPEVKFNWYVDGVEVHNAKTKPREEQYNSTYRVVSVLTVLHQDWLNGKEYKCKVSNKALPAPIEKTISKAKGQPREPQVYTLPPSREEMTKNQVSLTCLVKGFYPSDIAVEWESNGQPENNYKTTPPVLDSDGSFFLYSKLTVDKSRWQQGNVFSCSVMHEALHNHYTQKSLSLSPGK
TEST_DESCRIPTION: SPR pH 7.4, antigen-Fc captured, Fab analyte
Answer each item with its documented Fold improvement in KD.
Your reply should be a number followed by the unit it is expressed in.

Incoming: What measured Fold improvement in KD goes with 63BLH (Fab, V domains shown, also called 15BLM Fab; 015BLM Fab) VH: EVQLVQSGAEVKKPGASVKVSCKASGYTFTSYDMHWVRQAPGQGLEWMGRIDPQSGGIKYAQKFQGRATLTVDTSTSTAYMELSRLRSDDTAVYYCARWDYGGYFDVWGQGTLVTVSS VL: DIQMTQSPSSLSASVGDRVTITCRASQDIYNYLNWYQQKPGKAVKLLIYYTSRLETGVPSRFSGSGSGTDYTLTISSLQPEDFATYFCQQGDTLPWTFGQGTKLEIK ?
Outgoing: 197 fold

Incoming: What measured Fold improvement in KD goes with 58BLH (Fab, V domains shown, also called 10BLM Fab) VH: EVQLVQSGAEVKKPGASVKVSCKASGYTFTSYDMHWVRQAPGQGLEWMGRIDPQSGGTKYAQKFQGRATLTVDTSTSTAYMELSRLRSDDTAVYYCARWDYGGYFDVWGQGTLVTVSS VL: DIQMTQSPSSLSASVGDRVTITCRASQDIYNYLNWYQQKPGKAVKLLIYYTSVLETGVPSRFSGSGSGTDYTLTISSLQPEDFATYFCQQGDTLPWTFGQGTKLEIK ?
Outgoing: 1100 fold

Incoming: What measured Fold improvement in KD goes with 68BLH (Fab, V domains shown, also called 20BLM Fab) VH: EVQLVQSGAEVKKPGASVKVSCKASGYTFTSYDMHWVRQAPGQGLEWMGRIDPQSGGEKYAQKFQGRATLTVDTSTSTAYMELSRLRSDDTAVYYCARYDYGGYFDVWGQGTLVTVSS VL: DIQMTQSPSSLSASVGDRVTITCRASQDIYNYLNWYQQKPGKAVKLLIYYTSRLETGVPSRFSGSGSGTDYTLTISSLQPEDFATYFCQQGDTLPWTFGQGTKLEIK ?
Outgoing: 134 fold

Incoming: What measured Fold improvement in KD goes with 66BLH (Fab, V domains shown, also called 18BLM Fab) VH: EVQLVQSGAEVKKPGASVKVSCKASGYTFTSYDMHWVRQAPGQGLEWMGRIDPQSGGIKYAQKFQGRATLTVDTSTSTAYMELSRLRSDDTAVYYCARYDHGGYFDVWGQGTLVTVSS VL: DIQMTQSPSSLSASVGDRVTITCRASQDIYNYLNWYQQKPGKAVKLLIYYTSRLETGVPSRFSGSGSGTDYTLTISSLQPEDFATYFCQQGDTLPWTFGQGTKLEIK ?
Outgoing: 16 fold

Incoming: What measured Fold improvement in KD goes with 65BLH (Fab, V domains shown, also called 17BLM Fab) VH: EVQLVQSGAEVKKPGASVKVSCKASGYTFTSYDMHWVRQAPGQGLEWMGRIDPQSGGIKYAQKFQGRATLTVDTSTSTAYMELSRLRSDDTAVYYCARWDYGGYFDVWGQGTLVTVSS VL: DIQMTQSPSSLSASVGDRVTITCRASQDIYNYLNWYQQKPGKAVKLLIYYTSRLETGVPSRFSGSGSGTDYTLTISSLQPEDFATYFCQQGDELPWTFGQGTKLEIK ?
Outgoing: 401 fold
